Target: UniProtKB P56373
Test: hP2X3 FLIPR calcium (Fluo-4) antagonist assay, clone B
Details: Human P2X3 FLIPR Clone B IC50 (nM), RLE cells expressing hP2X3 clone B (NM_002559); agonist 500 nM α,β-methylene-ATP
MEASURED_QUANTITY: IC50 (nM)

Here are 5 compounds together with their reported answers.
>>> test_result("CCOc1ccc(C(C)N(C)c2nc(N3CCN(C(C)=O)CC3)nc3c2CN(C(C)C)C3=O)cc1 (stereo not drawn)")
390
>>> test_result("CC(=O)N1CCN(c2nc3c(c(N(Cc4ccccc4)CC4CC4)n2)CN(C(C)C)C3=O)CC1")
2700
>>> test_result("CCOc1ccc(CN(CC2CC2)c2nc(N3CCN(C(C)=O)CC3)nc3c2CN(C(C)C)C3=O)cc1")
950
>>> test_result("CC(=O)N1CCN(c2nc(NCc3ccc4ccccc4n3)c3c(n2)C(=O)N(C(C)C)C3)CC1")
6300
>>> test_result("CC(C)N1Cc2c(NCc3cnc4ccccc4c3)nc(N3CCN(S(C)(=O)=O)CC3)nc2C1=O")
8900

[a] CC(=O)N1CCN(c2nc3c(c(N(C)Cc4ccc5ncccc5c4)n2)CN(C(C)C)C3=O)CC1
[b] CCOc1ccc([C@H](Nc2nc(N3CCN(C(C)=O)CC3)nc3c2CN(C(C)C)C3=O)C2CC2)cc1
Q: Compare IC50: is it lower for a or for b ? // respond with label for picked entry
Ans: b
(b: 74 nM, a: 1200 nM)

[a] CC(C)N1Cc2c(NC(C)(C)Cc3ccc(F)cc3)nc(N3CCN4C(=O)CCC4C3)nc2C1=O (stereo not drawn)
[b] CC(=O)N1CCN(c2nc(NC(C)(C)Cc3ccc(F)cc3)c3c(n2)C(=O)N(Cc2ccccc2Cl)C3)CC1
Q: Compare IC50: is it lower for a or for b ? // respond with label for picked entry
Ans: a
(a: 490 nM, b: 3000 nM)

[I] CC(=O)N1CCN(c2nc(NCc3noc(C4CCC4)n3)c3c(n2)C(=O)N(C(C)C)C3)CC1
[II] CC(C)N1Cc2c(NC3c4cc(F)ccc4CCc4ncccc43)nc(NCCN(C)C)nc2C1=O (stereo not drawn)
Q: Compare IC50: is it lower for I or for II ? // respond with label for picked entry
Ans: II
(II: 270 nM, I: 750 nM)

[I] CC(C)N1Cc2c(NCc3cnc4ccccc4c3)nc(N(C)CC3CCCO3)nc2C1=O (stereo not drawn)
[II] CC(=O)N1CCN(c2nc3c(c(N(C)Cc4cc5ccccc5nc4C)n2)CN(C(C)C)C3=O)CC1
[III] CCOc1ccc([C@@H](C)Nc2nc(N3CCN(C(C)=O)CC3)nc3c2CN(C(C)C)C3=O)cc1C
[IV] CCC(C)N1Cc2c(NCc3cnc4ccccc4c3)nc(N3CCN(C(C)=O)CC3)nc2C1=O (single isomer, unassigned; (-)) [Example 309]
[V] CC(=O)N1CCN(c2nc3c(c(N(C)Cc4cc5ccccc5c(C)n4)n2)CN(C(C)C)C3=O)CC1
Q: Rank by IC50 (largest to smallest). Form entry: ranked labels (order as requested).
Ans: I, II, V, III, IV

[1] CC(=O)N1CCN(c2nc(NCc3nc(-c4ccccc4)no3)c3c(n2)C(=O)N(C(C)C)C3)CC1
[2] CC(=O)N1CCN(c2nc(NCc3n[nH]c4c3CCC4)c3c(n2)C(=O)N(C(C)C)C3)CC1
Q: Of 1 and 2 , whose reported IC50 is the larger number? // respond with label for picked entry
Ans: 1
(1: 3200 nM, 2: 940 nM)

[1] CC(=O)N1CCN(c2nc(NC(C(=O)O)c3ccc(C(F)(F)F)cc3)c3c(n2)C(=O)N(C(C)C)C3)CC1 (stereo not drawn)
[2] CC(=O)N1CCN(c2nc3c(c(N4CCC[C@@H]4C(=O)N4CCc5ccccc54)n2)CN(C(C)C)C3=O)CC1
[3] CC(=O)N1CCN(c2nc(NCc3cnc4ccccc4c3)c3c(n2)C(=O)N(C(C)C)C3)C(C)C1 (stereo not drawn)
Q: Rank the items in ascending order with respect to IC50. Form entry: ranked labels (order as requested).
Ans: 3, 1, 2

[1] COCCNc1nc2c(c(N3CCCC3Cc3ccc(Cl)cc3)n1)CN(C(C)C)C2=O (stereo not drawn)
[2] CC(C)N1Cc2c(NC(C)(C)Cc3ccc(F)cc3)nc(N3CCN4C(=O)OC[C@H]4C3)nc2C1=O
[3] COc1ccc(C(Nc2nc(N3CCN(C(C)=O)CC3)nc3c2CN(C(C)C)C3=O)c2ccccc2)cc1 (stereo not drawn)
[4] CC(C)N1Cc2c(NC3c4cccnc4CCc4c(F)cccc43)nc(NCCN(C)C)nc2C1=O (stereo not drawn)
[5] CC(=O)N1CCN(c2nc3c(c(N4CCCC4Cc4ccccc4Cl)n2)CN(C(C)C)C3=O)CC1 (stereo not drawn)
Q: Rank by IC50 (largest to smallest). Form entry: ranked labels (order as requested).
Ans: 1, 5, 2, 3, 4

[a] CC(=O)N1CCN(c2nc(NC(C)(C)Cc3ccc(F)cc3)c3c(n2)C(=O)N(C(C)C(C)C)C3)CC1 (stereo not drawn)
[b] CC(=O)N1CCN(c2nc(Nc3cccc(C(C)C)c3)c3c(n2)C(=O)N(C(C)C)C3)CC1
Q: Of a and b , whose reported IC50 is the larger number? // respond with label for picked entry
Ans: b
(b: 9300 nM, a: 280 nM)

[A] CC(=O)N1CCN(c2nc(NC3CCN(c4cccc(C)c4)C3)c3c(n2)C(=O)N(C(C)C)C3)CC1 (stereo not drawn)
[B] CC(=O)N1CCN(c2nc3c(c(N4CCCC4Cc4ccc(Cl)cc4)n2)CN(C(C)C)C3=O)CC1 (stereo not drawn)
Q: Compare IC50: is it lower for A or for B ? // respond with label for picked entry
Ans: B

====

Target: hP2X3 (human Purinergic P2X receptors subtype 3), clone B (Homo sapiens)
Sequence (P56373 whole entry): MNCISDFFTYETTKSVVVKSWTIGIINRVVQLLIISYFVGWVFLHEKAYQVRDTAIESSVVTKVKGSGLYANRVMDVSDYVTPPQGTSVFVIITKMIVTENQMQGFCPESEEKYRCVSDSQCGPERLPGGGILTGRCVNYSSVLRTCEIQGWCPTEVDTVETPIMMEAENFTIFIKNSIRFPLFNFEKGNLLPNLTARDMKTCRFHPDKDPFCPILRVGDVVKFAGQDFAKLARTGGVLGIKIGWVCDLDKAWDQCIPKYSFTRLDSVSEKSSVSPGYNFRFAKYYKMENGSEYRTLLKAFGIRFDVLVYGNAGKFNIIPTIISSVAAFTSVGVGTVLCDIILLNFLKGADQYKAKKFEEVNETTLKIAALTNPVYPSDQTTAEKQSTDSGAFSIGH
Assay: hP2X3 FLIPR calcium (Fluo-4) antagonist assay, clone B
Conditions: Human P2X3 FLIPR Clone B IC50 (nM), RLE cells expressing hP2X3 clone B (NM_002559); agonist 500 nM α,β-methylene-ATP
MEASURED_QUANTITY: IC50 (nM)

Here are 4 compounds together with their reported answers.
>>> test_result("CCC(C)N1Cc2c(NCc3cnn(-c4ccccc4)c3)nc(N3CCN(C(C)=O)CC3)nc2C1=O (single isomer, unassigned; (+)) [Example 306]")
34
>>> test_result("CC(=O)N1CCN(c2nc(NCc3cc(-c4ccccc4)no3)c3c(n2)C(=O)N(C(C)C)C3)CC1")
41
>>> test_result("CC(C)N1Cc2c(NC(c3ccccc3)c3ccccc3)nc(N3CCN(C(=O)C4CC4)CC3)nc2C1=O")
130
>>> test_result("CC(=O)N1CCN(c2nc3c(c(N4CCC[C@@H]4C(=O)N4CCC(C)CC4)n2)CN(C(C)C)C3=O)CC1")
2300

[I] CC(C)N1Cc2c(NC(C)(C)Cc3ccc(Cl)cc3)nc(N3CCNC(=O)CC3)nc2C1=O
[II] CC(=O)N1CCN(c2nc(N[C@H](C)c3ccc(OC(C)C)c(F)c3)c3c(n2)C(=O)N(C(C)C)C3)CC1
[III] CC(=O)N1CCN(c2nc(N[C@H](C)c3cc(F)cc(C(F)(F)F)c3)c3c(n2)C(=O)N(C(C)C)C3)CC1
Q: Rank by IC50 (largest to smallest). Form entry: ranked labels (order as requested).
Ans: I, III, II
(I: 350 nM, III: 87 nM, II: 44 nM)

[I] CC(=O)N1CCN(c2nc(N[C@H](C)c3ccc(OC(F)F)cc3)c3c(n2)C(=O)N(C(C)C)C3)CC1
[II] CC(=O)N1CCN(c2nc(N[C@H](C)c3ccc4c(c3)CCO4)c3c(n2)C(=O)N(C(C)C)C3)CC1
[III] COc1cccc(C2CCCN2c2nc(N3CCN(C(C)=O)CC3)nc3c2CN(C(C)C)C3=O)c1 (centres unmarked)
[IV] CC(=O)N1CCN(c2nc(N[C@H](C)c3cc(C(F)(F)F)ccc3F)c3c(n2)C(=O)N(C(C)C)C3)CC1
[V] COCc1ccc(CC2CCCN2c2nc(N3CCN(C(C)=O)CC3)nc3c2CN(C(C)C)C3=O)cc1 (centres unmarked)
Q: Rank the items in ascending order with respect to IC50. Form entry: ranked labels (order as requested).
Ans: I, IV, II, V, III

[A] CC(=O)N1CCN(c2nc(NCc3cnn(-c4ccccc4)c3)c3c(n2)C(=O)N(C(C)C)C3)CC1
[B] CC(=O)N1CCN(c2nc3c(c(N4CCC[C@@H]4C(=O)OC(C)(C)C)n2)CN(C(C)C)C3=O)CC1
Q: Compare IC50: is it lower for A or for B ? // respond with label for picked entry
Ans: A

[I] Cc1ccc(C(Nc2nc(NCCN(C)C)nc3c2CN(C(C)C)C3=O)c2ccccc2)cc1 (centres unmarked)
[II] CCC(C)N1Cc2c(nc(N3CCN(C(C)=O)CC3)nc2N(CC)Cc2cc3ccccc3cn2)C1=O (single isomer, unassigned) [Example 317]
[III] CC(=O)N1CCN(c2nc(NCc3cc(C(C)(C)C)[nH]n3)c3c(n2)C(=O)N(C(C)C)C3)CC1
[IV] CCN1CCN(c2cc(C(F)(F)F)ccc2CNc2nc(N3CCN(C(C)=O)CC3)nc3c2CN(C(C)C)C3=O)CC1
Q: Rank by IC50 (largest to smallest). Form entry: ranked labels (order as requested).
Ans: IV, III, I, II

[1] CC(=O)N1CCN(c2nc3c(c(N(Cc4ccccc4)Cc4ccccc4)n2)CN(C(C)C)C3=O)CC1
[2] CC(=O)N1CCN(c2nc(N[C@H](C)c3cnc4ccccc4c3)c3c(n2)C(=O)N(C(C)C)C3)CC1 [Example 233]
[3] CC(=O)N1CCN(c2nc(NC(C)c3ccc(C(C)(C)C#N)c(F)c3)c3c(n2)C(=O)N(C(C)C)C3)CC1 (centres unmarked)
[4] COc1cccc([C@@H](C)Nc2nc(N3CCN(C(C)=O)CC3)nc3c2CN(C(C)C)C3=O)c1
Q: Rank the items in ascending order with respect to IC50. Form entry: ranked labels (order as requested).
Ans: 2, 1, 3, 4

[1] CC(=O)N1CCN(c2nc(NCc3cc(-c4ccccc4)on3)c3c(n2)C(=O)N(C(C)C)C3)CC1
[2] COc1ccc(CC2CCCN2c2nc(N3CCN(C(C)=O)CC3)nc3c2CN(C(C)C)C3=O)cc1 (centres unmarked) [Example 286]
[3] CCN1CCN(c2nc(NCC(c3ccccc3)c3ccccc3)c3c(n2)C(=O)N(C(C)C)C3)CC1
Q: Rank by IC50 (largest to smallest). Form entry: ranked labels (order as requested).
Ans: 3, 2, 1
(3: 2300 nM, 2: 67 nM, 1: 45 nM)

[1] CC(=O)N1CCN(c2nc(N[C@H](C)c3cnc4ccccc4c3)c3c(n2)C(=O)N(C(C)C)C3)CC1 (single isomer, unassigned) [Example 344]
[2] CC(=O)N1CCN(c2nc(NCc3nc(C4CCCC4)no3)c3c(n2)C(=O)N(C(C)C)C3)CC1
Q: Compare IC50: is it lower for 1 or for 2 ? // respond with label for picked entry
Ans: 1
(1: 35 nM, 2: 590 nM)
